Tested on: A498 renal
Test: NCI-60 one-dose screen, 48 h
Settings: 10 µM unless noted
The panel holds about 83,000 compounds, 20% with a hit somewhere; the sample as a whole holds those more often. The source made the active and inactive calls. Rule for the calls: active = growth percent below 10; inactive = the rest.
Please reply with one of these outcomes: active, inactive

Input: Called result for c1ccc2[nH]c(-c3ccc(Nc4nc(N5CCCC5)nc5[nH]ncc45)cc3)nc2c1
Output: inactive

Input: Called result for COc1ccc(CN2c3ccccc3Sc3ccccc32)c(C(F)(F)F)c1
Output: active

Input: Called result for O=C1NC(=S)N[C@H]1CC(=O)n1cnc2ccccc21
Output: inactive

Input: Called result for Cc1cc(N2CCOCC2)nc(NCc2cc(Nc3ccnc4cc(Cl)ccc34)ccc2F)n1
Output: active

Input: Called result for COC(=O)[C@]12CCC(C)(C)C[C@H]1[C@H]1C(=O)C[C@@H]3[C@@]4(C)c5c([nH]c6ccccc6c5=O)C(C)(C)[C@@H]4CC[C@@]3(C)[C@]1(C)CC2
Output: inactive

Input: Called result for COc1cccc(-c2nc3sccn3c2-c2ccnc(NCCCNS(=O)(=O)c3c(Cl)cccc3Cl)c2)c1
Output: inactive

Input: Called result for CC(=O)c1cc2c(N)c(C(=O)Nc3cccc(F)c3C)sc2nc1C
Output: inactive

Input: Called result for O=C(Cc1ccccc1Nc1c(Cl)cccc1Cl)NN1C(=O)/C(=C/c2ccc(Br)cc2)SC1=S
Output: inactive

Input: Called result for COc1cc(-c2nc3ccccc3[nH]2)ccc1OCC(=O)N=Nc1c(O)[nH]c2ccc(Cl)cc12
Output: inactive

Input: Called result for CCOC(=O)n1cc(-c2nonc2-c2cn(C)c3ncccc23)c2ccccc21
Output: inactive

Input: Called result for C=C(C)[C@@H]1CC[C@]2(C(=O)OC)CC[C@]3(C)[C@H](CC[C@@H]4[C@@]5(C)C/C(=C/c6ccc(OC)cc6)C(=O)C(C)(C)[C@@H]5CC[C@]43C)[C@@H]12
Output: inactive

Input: Called result for Cc1oc(-c2ccc(Cl)cc2Cl)cc1C(=O)Nc1nccs1
Output: inactive

Input: Called result for Cn1ncc2c(=O)nc3c(-c4ccccc4)n[nH]n3c21
Output: inactive

Input: Called result for COc1cc2c(cc1O)CC[C@@H]1[C@@H]2CC[C@]2(C)[C@@H](OCCCN(C)C)CC[C@@H]12
Output: active

Input: Called result for O=C1/C(=C/C(Cl)=C/c2ccccc2)SC(=S)N1CCc1ccc(O)cc1
Output: active

Input: Called result for NC(=NC1C2CC3CC(C2)CC1C3)Nc1ccc(I)cc1 (centres undefined)
Output: active

Input: Called result for O=C1c2ccccc2C(=O)c2c(N=Nc3[nH]c(=S)[nH]c3O)cccc21
Output: active

Input: Called result for COc1cc2nc(N3CCCC3)nc(NCCc3ccccc3)c2cc1OC
Output: inactive

Input: Called result for CN1CCN(c2ccc(Nc3c4ccccc4nc4ccccc34)cc2)CC1
Output: inactive

----------
Tested on: OVCAR-4 ovarian
Assay: NCI-60 one-dose screen, 48 h
Details: 10 µM unless noted
Compounds without any hit were thinned out: in the full panel of roughly 83,000, 20% have a hit. Calls of active or inactive are those of the source. How the source made its calls: active means growth percent below 10; inactive means the rest.
Please reply with one of these outcomes: True = active, False = inactive

Input: Called result for CC(=O)O[C@H]1CC[C@]2(C)[C@H]3CC=C4[C@@H]5CC(C)(C)CC[C@]5(C(=O)NCCNCCNCCN)CC[C@@]4(C)[C@]3(C)CC[C@H]2C1(C)C
Output: False

Input: Called result for COc1cccc(-c2nn(C(C)(C)C)cc2-c2ccnc(NCCCNS(=O)(=O)c3ccc(C)cc3)c2)c1
Output: False

Input: Called result for O=C1CSC(=S)N1CCc1ccc(O)cc1
Output: False

Input: Called result for COc1cc(-c2nn(-c3ccc(C(=O)O)cc3)cc2C(=O)O)ccc1O
Output: False

Input: Called result for COc1cc2c(cc1-c1c(C)noc1C)ncc1nc(C3CCOCC3)n([C@H](C)COC(F)F)c12
Output: False

Input: Called result for COC(=O)c1cccc(NC(=O)c2ccc(-c3cccc(N)c3)o2)c1
Output: False

Input: Called result for COc1ccc(CCNc2nc3c(c(=O)n(Cc4ccc(Br)cc4)c(=O)n3C)n2C)cc1OC
Output: False

Input: Called result for COc1cc2c(cc1-c1c(C)noc1C)ncc1nc(C3CCOCC3)n([C@@H](C)COC(F)F)c12
Output: False

Input: Called result for COc1cc2c(cc1-c1c(C)noc1C)ncc1nc(C3CCCC3)n([C@H](C)COC(F)F)c12
Output: False

Input: Called result for O=C1/C(=C/c2ccc3c(c2)OCO3)SC(=S)N1CCc1ccc(O)cc1
Output: False

Input: Called result for O=C1Nc2cc(-c3ccc(O)cc3)ccc2/C1=C/c1ccc[nH]1
Output: False

Input: Called result for COc1cc2c(cc1O)CC[C@@H]1[C@@H]2CC[C@]2(C)[C@@H](OCCCN(C)C)CC[C@@H]12
Output: True

Input: Called result for N#Cc1c(N)n(CCNC(=O)c2ccccc2)c2nc3ccccc3nc12
Output: False

Input: Called result for CN(C)S(=O)(=O)c1ccc(S(=O)(=O)Nc2cccc(Cl)c2N2CCCCC2)cc1
Output: False

Input: Called result for O=[N+]([O-])c1ccccc1/C=N\NC(=S)N/N=C/c1ccccc1[N+](=O)[O-]
Output: False

Input: Called result for CCOC(=O)c1sc(Nc2ccc(Cl)cc2)nc1C
Output: False

Input: Called result for O=C1/C(=C/c2ccc(OCCCOc3ccc(Cl)cc3)cc2)N=C2SCCCN12
Output: False

Input: Called result for CC(=O)O[C@H]1CC[C@]2(C)[C@H]3CC=C4[C@@H]5CC(C)(C)CC[C@]5(C(=O)NCCNCCN)CC[C@@]4(C)[C@]3(C)CC[C@H]2C1(C)C
Output: True

Input: Called result for C=CC(=O)Nc1cccc(Nc2nc(SC)nc(-c3cccc([N+](=O)[O-])c3)c2C#N)c1
Output: False

----------
Provide the reported growth of each item.
Test system: RPMI-8226 leukemia
Assay: NCI-60 one-dose screen, 48 h (100 = growth as untreated, 0 = no growth, -100 = all killed)
Settings: 10 µM unless noted
This is part of a sample that, as a whole, favours compounds with a hit. Of some 83,000 tested, about 20% had one in any assay. Calls of active or inactive are those of the source. The calls were made as follows: active = growth percent below 10; inactive = the rest.

Input: # returns recorded growth (system: RPMI-8226 leukemia) for O=C1CC(=NCC(=O)n2c(-c3ccccc3)nc3ccccc32)NN1
Output: 104% (inactive)

Input: # returns recorded growth (system: RPMI-8226 leukemia) for Cn1cc(-c2nonc2-c2c[nH]c3ccc(F)cc23)c2cccnc21
Output: 69.2% (inactive)

Input: # returns recorded growth (system: RPMI-8226 leukemia) for O=CNc1ccc2c(c1)Cc1cccc(NC=O)c1-2
Output: 103% (inactive)

Input: # returns recorded growth (system: RPMI-8226 leukemia) for CCOC(=O)C(C)(C#N)C1C=CCCC1 (stereo not given)
Output: 92.9% (inactive)

Input: # returns recorded growth (system: RPMI-8226 leukemia) for CCOC(=O)c1c(C(=O)OCC)c2cc(-c3ccn4c(C(=O)c5ccccc5)c(C(=O)OCC)c(C(=O)OCC)c4c3)ccn2c1C(=O)c1ccccc1
Output: 50.6% (inactive)

Input: # returns recorded growth (system: RPMI-8226 leukemia) for CN1CCN(c2ccc3nc(-c4ccc(OCCCCN5CCN(CCCCN6C(=O)c7cccc8cccc(c78)C6=O)CC5)cc4)[nH]c3c2)CC1
Output: 26.3% (inactive)

Input: # returns recorded growth (system: RPMI-8226 leukemia) for N#CCCN=Nc1c(O)[nH]c2ccc(F)cc12
Output: 109% (inactive)

Input: # returns recorded growth (system: RPMI-8226 leukemia) for FC(F)(F)Oc1ccc2nc3nc4ccc[nH]c4cc3c2c1
Output: 71.7% (inactive)

Input: # returns recorded growth (system: RPMI-8226 leukemia) for COc1ccc(O)c(N=Nc2nccs2)c1
Output: 25.3% (inactive)

Input: # returns recorded growth (system: RPMI-8226 leukemia) for O=c1ccccc(-c2ccc(Br)cc2)c1O
Output: 9.5% (active)

Input: # returns recorded growth (system: RPMI-8226 leukemia) for Cc1nc(Nc2ccc(F)c(Cl)c2)sc1C(=O)O
Output: 5.09% (active)

Input: # returns recorded growth (system: RPMI-8226 leukemia) for Cc1cc(C)nc(SC2=C(Nc3ccc(C)c(Cl)c3)C(=O)N(Cc3ccccc3)C2=O)n1
Output: 7.62% [30 µM] (active)

Input: # returns recorded growth (system: RPMI-8226 leukemia) for FC(F)(F)c1[nH]ncc1-c1nc2ccc3n[nH]c(C#Cc4cccnc4)c3c2c2c1CCCC2
Output: 47.7% (inactive)

Input: # returns recorded growth (system: RPMI-8226 leukemia) for COc1ccc(CCNc2nc3c(c(=O)n(Cc4ccc(Br)cc4)c(=O)n3C)n2C)cc1OC
Output: 78.5% (inactive)

Input: # returns recorded growth (system: RPMI-8226 leukemia) for O=C1c2cc3c(cc2-c2c1c1ccc(Cl)cc1c(=O)n2CCCN1CCOCC1)OCO3
Output: 60.8% (inactive)

Input: # returns recorded growth (system: RPMI-8226 leukemia) for CCOC(=O)n1cc(-c2nonc2-c2cn(C)c3ncccc23)c2ccccc21
Output: 77.9% (inactive)

Input: # returns recorded growth (system: RPMI-8226 leukemia) for COc1cc(C=Nc2oc(-c3ccccc3)c(-c3ccccc3)c2C#N)cc(CN2CCCCC2)c1O
Output: 100% (inactive)

Input: # returns recorded growth (system: RPMI-8226 leukemia) for CCCCCCN(CCCCCC)C(=N)c1ccnc2ccccc12
Output: 50.2% (inactive)

Input: # returns recorded growth (system: RPMI-8226 leukemia) for CCCCn1cnc2c(Sc3c([N+](=O)[O-])ncn3C)nc(N)nc21
Output: 52.3% (inactive)

Input: # returns recorded growth (system: RPMI-8226 leukemia) for C[n+]1ccccc1/C=C/c1ccc2cccc(O)c2n1
Output: 105% (inactive)

Input: # returns recorded growth (system: RPMI-8226 leukemia) for CC1=C[C@H]2c3c(c(O)c(O)c4oc(-c5ccccc5)cc(=O)c34)[C@H](c3cc(O)c(O)c4oc(-c5ccccc5)cc(=O)c34)[C@H]2C(C)(C)C1
Output: 7.2% (active)

Input: # returns recorded growth (system: RPMI-8226 leukemia) for CC(=O)c1cc2c(N)c(C(=O)Nc3cccc(F)c3C)sc2nc1C
Output: 86% (inactive)

Input: # returns recorded growth (system: RPMI-8226 leukemia) for COc1cc(/C=C/c2cc(O)c3cc(C(C)=O)c(=O)oc3c2)cc2c1O[C@]1(C)CC[C@@H](O)C(C)(C)[C@H]1C2
Output: -22.6% (active)

Input: # returns recorded growth (system: RPMI-8226 leukemia) for c1ccc(CCNc2ncnc3[nH]ncc23)cc1
Output: 67% (inactive)

Input: # returns recorded growth (system: RPMI-8226 leukemia) for O=C(NCCN1CCOCC1)Nc1ccc(-c2cc3c(Nc4ccc(Oc5cccc(C(F)(F)F)c5)c(Cl)c4)ncnc3s2)cc1
Output: -14.8% (active)

Input: # returns recorded growth (system: RPMI-8226 leukemia) for CC(=O)c1cc(C(=O)c2ccc3c(c2)Sc2ccccc2N3)n2ccccc12
Output: 5.63% (active)

Input: # returns recorded growth (system: RPMI-8226 leukemia) for Cc1ccccc1COc1ccc(-c2ccnn2-c2ccc(Cl)cc2)cc1
Output: 77.6% (inactive)

Input: # returns recorded growth (system: RPMI-8226 leukemia) for O=C(N/N=C/c1ccccc1O)c1ccccc1Nc1ccnc(C(F)(F)F)c1
Output: -22% (active)

Input: # returns recorded growth (system: RPMI-8226 leukemia) for CCOC(=O)c1c(C)oc2ncnc(N3CCN(C(=O)COc4ccc(SC)cc4)CC3)c12
Output: 81.6% (inactive)

Input: # returns recorded growth (system: RPMI-8226 leukemia) for Cc1nn(-c2ccc(F)cc2)c2ncnc(Nc3ccc(NC(=O)Nc4ccc(Cl)c(C(F)(F)F)c4)cc3)c12
Output: 19.3% (inactive)

Input: # returns recorded growth (system: RPMI-8226 leukemia) for Cc1ccc(NC(=O)C2CCC(CN3CCN(C)CC3)CC2)cc1Nc1nccc(-c2cccnc2)n1 (stereo not given)
Output: 96.6% (inactive)

Input: # returns recorded growth (system: RPMI-8226 leukemia) for COc1cccc(Nc2nc(SC)nc(-c3cccc([N+](=O)[O-])c3)c2C#N)c1
Output: 95% (inactive)

Input: # returns recorded growth (system: RPMI-8226 leukemia) for COc1cc(/C=C/C(=O)Nc2cccnc2Nc2ccc(F)cc2)cc(OC)c1OC
Output: 69.1% (inactive)

Input: # returns recorded growth (system: RPMI-8226 leukemia) for O=c1cc(CSc2nnc(-c3ccc(F)cc3)o2)c2ccc3ccccc3c2o1
Output: 101% (inactive)

Input: # returns recorded growth (system: RPMI-8226 leukemia) for O=C1CSC(=S)N1CCc1ccc(O)cc1
Output: 37.9% (inactive)

Input: # returns recorded growth (system: RPMI-8226 leukemia) for COc1ccc(-c2nc3cc(C(=O)Nc4cc(OC)c(OC)c(OC)c4)ccc3n2C2CCCCC2)cc1
Output: 91.7% (inactive)

Input: # returns recorded growth (system: RPMI-8226 leukemia) for NC(=NC1C2CC3CC(C2)CC1C3)Nc1ccc(I)cc1 (stereo not given)
Output: 20.6% (inactive)

Input: # returns recorded growth (system: RPMI-8226 leukemia) for O=C1/C(=C/c2cn(-c3ccccc3)nc2-c2ccccc2)SC(=S)N1CCc1ccccc1
Output: 102% (inactive)

Input: # returns recorded growth (system: RPMI-8226 leukemia) for CCn1c(O)c(/C=N/NC(=O)C(C)c2ccc(CC(C)C)cc2)sc1=S (stereo not given)
Output: 1.77% (active)

Input: # returns recorded growth (system: RPMI-8226 leukemia) for CC(C)(C)c1cc(C(C)(C)C)cc(S(=O)(=O)Nc2cc3ccccc3cc2C(=O)NCCN)c1
Output: -5.61% (active)
